# credit: patent US20210246166A1

system-under-test: recombinant human MASP2 active protease (amino acids 297-686, C-terminal His Tag) (human, UniProt O00187 297-686)
Sequence (O00187 other isoform, or with tags, fused parts or gaps limits assumed): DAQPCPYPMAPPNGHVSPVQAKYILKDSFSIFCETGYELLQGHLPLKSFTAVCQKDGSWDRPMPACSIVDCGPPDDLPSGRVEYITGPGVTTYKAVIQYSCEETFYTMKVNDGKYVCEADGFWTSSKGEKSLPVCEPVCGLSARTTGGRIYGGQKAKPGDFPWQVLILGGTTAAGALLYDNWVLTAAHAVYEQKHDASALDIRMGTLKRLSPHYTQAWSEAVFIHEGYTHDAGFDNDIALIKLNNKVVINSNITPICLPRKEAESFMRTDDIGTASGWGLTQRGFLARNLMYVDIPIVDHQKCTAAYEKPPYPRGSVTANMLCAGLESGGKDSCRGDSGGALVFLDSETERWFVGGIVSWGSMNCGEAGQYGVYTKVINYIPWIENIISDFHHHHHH
assay-overview: cell-based or functional assay
Numbered stars: 1 amine (or outer) side, 2 acyl side, 3 side chain; on linkers, the order of the positions; unused ones are H or OH. Bridge positions count the residues as written; N and C are the ends. Square brackets hold non-standard residues; d marks the D form. Ends that are not written are not given here. X17 = 2‑((1S,2S)-1-(Amino)-2-methylbutyl)‑1,3‑oxazole‑4‑carboxylic acid, CC[C@H](C)[C@H](N[*:1])c1nc(C(=O)[*:2])co1; PEG9(31 atoms) = 1-amino-3,6,9,12,15,18,21,24,27-nonaoxatriacontan-30-oic acid; Pro(cis-4-CF3) = O=C(O)[C@@H]1C[C@H](C(F)(F)F)CN1; Oic = O=C(O)[C@@H]1C[C@@H]2CCCC[C@@H]2N1; NMeI = CC[C@H](C)[C@H](NC)C(=O)O; tBuAla = CC(C)(C)C[C@H](N)C(=O)O; Pen = CC(C)(S)[C@H](N)C(=O)O; NMeC = CN[C@@H](CS)C(=O)O; Sar = CNCC(=O)O
attribute-measured: human MASP2 IC50 (nM)
Record the value in nM, omitting the unit from your answer.

For record [Sar][NMeI]CSRS[tBuAla]PPI[Pen]I-NH2 (disulfide 3-11; N-terminus assumed; SMILES CC[C@H](C)[C@H](NC(=O)[C@H]1NC(=O)[C@H]([C@@H](C)CC)NC(=O)[C@@H]2CCCN2C(=O)[C@@H]2CCCN2C(=O)[C@H](CC(C)(C)C)NC(=O)[C@H](CO)NC(=O)[C@H](CCCNC(=N)N)NC(=O)[C@H](CO)NC(=O)[C@@H](NC(=O)[C@H]([C@@H](C)CC)N(C)C(=O)CNC)CSSC1(C)C)C(N)=O) [((N-Me)G)-((N-Me)I)-C+SRS-((tBu)A)-PPI-(Pen)+I-NH2] the listed human MASP2 IC50 is 320

For reference, reported human MASP2 IC50 for AICSRS[tBuAla]PPI[NMeC][X17]D-NH2 (disulfide 3-11; N-terminus assumed; SMILES CC[C@H](C)[C@H](NC(=O)[C@H](C)N)C(=O)N[C@H]1CSSC[C@@H](C(=O)N[C@H](c2nc(C(=O)N[C@@H](CC(=O)O)C(N)=O)co2)[C@@H](C)CC)N(C)C(=O)[C@H]([C@@H](C)CC)NC(=O)[C@@H]2CCCN2C(=O)[C@@H]2CCCN2C(=O)[C@H](CC(C)(C)C)NC(=O)[C@H](CO)NC(=O)[C@H](CCCNC(=N)N)NC(=O)[C@H](CO)NC1=O) stands at 720

For AICSRS[tBuAla]P[Pro(cis-4-CF3)]I[NMeC]IPD-NH2 (disulfide 3-11; N-terminus assumed; SMILES CC[C@H](C)[C@H](NC(=O)[C@H](C)N)C(=O)N[C@H]1CSSC[C@@H](C(=O)N[C@H](C(=O)N2CCC[C@H]2C(=O)N[C@@H](CC(=O)O)C(N)=O)[C@@H](C)CC)N(C)C(=O)[C@H]([C@@H](C)CC)NC(=O)[C@@H]2C[C@H](C(F)(F)F)CN2C(=O)[C@@H]2CCCN2C(=O)[C@H](CC(C)(C)C)NC(=O)[C@H](CO)NC(=O)[C@H](CCCNC(=N)N)NC(=O)[C@H](CO)NC1=O) [AIC+SRS-((tBu)A)-P-((4-CF3)P)-I-((N-Me)C)+IPD-NH2] the binder record lists human MASP2 IC50 as 1600

Per the record, [Sar]ICSRSLP[Oic]I[Pen]IP[PEG9(31 atoms)]-NH2 (disulfide 3-11) [((N-Me)G)-IC+SRSLP-(Oic)-I-(Pen)+IP-(PEG9(31 atoms))-NH2] has human MASP2 IC50 of 100

// field: human MASP2 IC50; key: AICSRS[tBuAla]PP[(2S)‑2‑(Amino)‑2‑((1S,3R)-3-hydroxycyclohexyl)acetic acid][NMeC]IPD-NH2 (disulfide 3-11) [AIC+SRS-((tBu)A)-PP-((2S)-2-(Amino)-2-[(1S,3R)-3-hydroxycyclohexyl]acetic acid)-((N-Me)C)+IPD-NH2] ; value = 330
